tested system: hENPP2 (UniProtKB/SwissProt Sequence ref Q13822) (Homo sapiens (Human), UniProt Q13822)
assay name: LPC hENPP2 assay (choline release, LPC as substrate)
Type: biochemical
The entries below are paired with their reported IC50.

molecule | tested system | IC50
CCc1nc2ccc(N3CCC(CNC(=O)N(C)C)CC3)nn2c1N(C)c1nc(-c2ccc(F)cc2)cs1 [Cpd 106] | hENPP2 (UniProtKB/SwissProt Sequence ref Q13822) (Homo sapiens (Human), UniProt Q13822) | > 1000 nM
CCc1nc2ccc(N3CCN(CC(=O)N4CCC(F)(F)C4)CC3)nn2c1N(C)c1nc(-c2ccc(F)cc2)cs1 [Cpd 31] | hENPP2 (UniProtKB/SwissProt Sequence ref Q13822) (Homo sapiens (Human), UniProt Q13822) | 100 to 500 nM
CCc1nc2ccc(N3CCC(N4CCOCC4)C3)nn2c1N(C)c1nc(-c2ccc(F)cc2)c(C#N)s1 (stereo not shown) [Cpd 149] | hENPP2 (UniProtKB/SwissProt Sequence ref Q13822) (Homo sapiens (Human), UniProt Q13822) | 0.01 to 100 nM
CCc1nc2cnc(N3CCN(CC(=O)N4CC(F)C4)CC3)cn2c1N(C)c1nc(-c2ccc(F)cc2)c(C#N)s1 [Cpd 11] | hENPP2 (UniProtKB/SwissProt Sequence ref Q13822) (Homo sapiens (Human), UniProt Q13822) | 100 to 500 nM
CCc1nc2ccc(N3CCN4C(=O)COC[C@@H]4C3)nn2c1N(C)c1nc(-c2ccc(F)cc2)cs1 [Compound 66] | hENPP2 (UniProtKB/SwissProt Sequence ref Q13822) (Homo sapiens (Human), UniProt Q13822) | > 1000 nM

IC50 reading for CCc1nc2ccc(N3CCC(NC(=O)C4CCNCC4)CC3)nn2c1N(C)c1nc(-c2ccc(F)cc2)cs1 [Cpd 88] : 500 to 1000 nM

IC50 reading for CCc1nc2ccc(N3CCN(S(=O)(=O)CC)CC3)nn2c1N(C)c1nc(-c2ccc(F)cc2)cs1 [Cpd 71] : > 1000 nM
